Data origin, for the record: patent US10723716B2

# SYSTEM UNDER TEST: Aβ40 (Homo sapiens, UniProt P05067)
# Construct: Cleavage of APP results in several Aβ isoforms; The predominant species are Aβ42 and Aβ40
# Sequence (P05067 672-711 limits assumed): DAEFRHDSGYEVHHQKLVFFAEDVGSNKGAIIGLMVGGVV
# ASSAY NOTES: Isothermal titration calorimetry (ITC)
MEASUREMENT KIND: Kd (µM)
Expressed in µM, but write only the number.

Return reported Kd; argument: COC(=O)c1ccc(NC(=O)c2ccc(NC(=O)c3ccc([N+](=O)[O-])c(OCc4ccccc4)n3)c(OCCCN)n2)c(OCCCN)n1
0.7

---

Consider the following molecules; for each one, report its pIC50.
# Test system: Aβ42 mediated toxicity in mouse neuroblastoma (N2a) cells
# ASSAY NOTES: Aβ42 mediated toxicity in Neuro-2a cells (MTS cell viability)
# Format: cell-based
# CONDITION DESCRIPTION: mouse/rat NG108-15, N2a, 5 μM Aβ42, N2a cells; read-out: IC50 (concentration required to inhibit 50% cell toxicity induced by 5 μM Aβ42)
Hey, just a heads up that pIC50 is the negative log base 10 of the concentration in molar.

Return reported pIC50; argument: COC(=O)c1ccc(NC(=O)c2ccc(NC(=O)c3ccc(NC(=O)c4ccc([N+](=O)[O-])c(OCC(C)C)n4)c(OCc4ccccc4)n3)c(OCC(=O)O)n2)c(OCC(=O)O)n1
5.60

Return reported pIC50; argument: COC(=O)c1ccc(NC(=O)c2ccc(NC(=O)c3ccc([N+](=O)[O-])c(OCc4ccccc4)n3)c(OCCCN)n2)c(OCCCN)n1
5.84
